Recorded values, source PubChem BioAssay AID1508612.

Measured Papp, listed per entry.
- test name: passive permeability, PAMPA, ADME assay (AID 1508612)
- test conditions: pH 7.4, 30.0 min, 50.0 µM

These solved cases illustrate the format of a correct answer.
- compound: "Cc1ccc(S(=O)(=O)Nc2ccc(C)cc2C(=O)Nc2nc(-c3ccccc3)cs2)cc1"
  experimental result: "< 1 ×10⁻⁶ cm/s"
- compound: "CC1CCc2cc(F)ccc2N1C(=O)CSc1nnc2c(n1)[nH]c1ccccc12 (centres undefined)"
  experimental result: "> 1000 ×10⁻⁶ cm/s"
- compound: "NCC(=O)Nc1cccc(-c2nn3c(=O)cc(N4CCNCC4)nc3s2)c1"
  experimental result: "< 1 ×10⁻⁶ cm/s"

Next compound, please.
GET /values?readout=Papp&item= Cc1ccc(S(=O)(=O)Nc2ccncc2C(=O)Nc2nc(-c3ccccc3)cs2)cc1
< 1 ×10⁻⁶ cm/s

====

- test name: passive permeability, PAMPA, ADME assay (AID 1508612)
- test conditions: pH 7.4, 30.0 min, 50.0 µM
quantity: Papp

Some entries whose results are on file:
- structure smiles string: "Cc1cc(-c2nnc3n2CCCCC3)c(C)n1-c1ccc(Br)cc1"
  Papp: "> 10000 nm/s"
- structure smiles string: "O=C(Nc1cccc(C(F)(F)F)c1)c1ccccc1NC(=O)C1CCCCC1"
  Papp: "< 10 nm/s"

// lookup Papp for Cc1ccc(CN2CCOC[C@H]2c2ncc(-c3cccc(F)c3)[nH]2)cc1
> 10000 nm/s

====

- test name: passive permeability, PAMPA, ADME assay (AID 1508612)
- test conditions: pH 7.4, 30.0 min, 50.0 µM
quantity: Papp (×10⁻⁶ cm/s)
Respond with the bare value in ×10⁻⁶ cm/s.

These recorded examples may help you get a feel for the data.
- compound: "O=C(Nc1nc(-c2ccccn2)cs1)c1cccc(-n2cnnn2)c1"
  quantity: "Papp"
  experimental result: 290
- compound: "O=C(CCc1ccccc1)NC(c1cccs1)c1cc(Cl)c2cccnc2c1O (stereo unspecified)"
  quantity: "Papp"
  experimental result: 20.9

Query compound follows.
Can you look up the measured Papp of CCCN(CCC)CCc1cccc2c1CC(=O)N2 for me?
179

====

- test name: passive permeability, PAMPA, ADME assay (AID 1508612)
- test conditions: pH 7.4, 30.0 min, 50.0 µM
quantity: Papp (nm/s)
Write down the numeric answer in nm/s and omit the unit.

- molecule: "COC(=O)c1ccc2nc(NC3=NC(c4[nH]ncc4Cl)C4=C(CCCC4=O)N3)oc2c1 (stereo unspecified)"
  u: "nm/s"
  experimental result: 5780
- molecule: "Cc1ccc(S(=O)(=O)Nc2cnccc2C(=O)Nc2nc(-c3ccc(Cl)c(Cl)c3)cs2)cc1"
  u: "nm/s"
  experimental result: 515
- molecule: "Cc1ccc(S(=O)(=O)N[C@@H](Cc2ccccc2)C(=O)CCl)cc1"
  u: "nm/s"
  experimental result: 3230

Moving on to another molecule below.
Give its Papp value. Item: O=C(Nc1nc(-c2ccc(F)cc2)cs1)c1ccncc1NS(=O)(=O)c1ccc(F)cc1
7550

====

- test name: passive permeability, PAMPA, ADME assay (AID 1508612)
- test conditions: pH 7.4, 30.0 min, 50.0 µM
The compounds listed here are annotated with their Papp.

Some solved cases for reference:
- structure smiles string: "Oc1ccc(CNc2ccccc2Br)c2cccnc12"
  Papp: "< 1 ×10⁻⁶ cm/s"
- structure smiles string: "CNC(=O)c1ccccc1Nc1nc(Nc2ccc(N3CCOCC3)cc2OC)ncc1Cl"
  Papp: "> 1000 ×10⁻⁶ cm/s"

Let us examine a further case.
What does the record list as Papp for CCOc1ccc(CCNC(=O)c2cc3sccc3n2Cc2ccc(-n3cncn3)cc2)cc1OCC ?
> 1000 ×10⁻⁶ cm/s
